The entries below are paired with their reported pIC50.
Test system: B16-F10 (mouse melanoma)
Assay: Growth inhibition, MTT colorimetric assay, B16F10
Assay type: cell-based
Conditions: Mus musculus, B16-F10, 72 h; melanoma; 3 days with drug; means of six values; unit inferred; read-out: IC50 B16F10
Field pIC50 (float): negative decimal logarithm of the concentration in molar.

Recorded pIC50, per entry:
Oc1ccc(CN(Cc2cccc(C(F)(F)F)c2)Cc2ccc(O)c3ncccc23)c2cccnc12	7.05
Cc1ccc(CN(Cc2ccc(O)c3ncccc23)Cc2ccc(O)c3ncccc23)cc1	7.06
Oc1ccc(CN(Cc2ccccc2)Cc2ccc(O)c3ncccc23)c2cccnc12	6.12
Oc1ccc(CN(Cc2ccc(C(F)(F)F)cc2)Cc2ccc(O)c3ncccc23)c2cccnc12	7.04

## Task Recorded pIC50 of "Oc1ccc(CN(Cc2cccc(I)c2)Cc2ccc(O)c3ncccc23)c2cccnc12" , please.
## Result 6.05

====

Tested on: KB3 (epitheloid lung cancer) cell lines
Assay: Cell growth inhibition (cytotoxicity), MTS assay, KB3 cell line
Format: cell-based
Conditions: KB3; Table 3A; MTS assay, triplicate; read-out: KB3 IC50
The following molecules are listed with their measured pIC50 values.
// pIC50 is dimensionless: -log10 of concentration (M)

Before answering, review these 6 worked examples.
Oc1ccc(CN(Cc2cccs2)Cc2ccc(O)c3ncccc23)c2cccnc12	8.70
Oc1ccc(CN(Cc2cccc(C(F)(F)F)c2)Cc2ccc(O)c3ncccc23)c2cccnc12	5.66
Oc1ccc(CN(Cc2ccc(C(F)(F)F)cc2)Cc2ccc(O)c3ncccc23)c2cccnc12	9.00
Oc1ccc(CN(Cc2ccc(O)c3ncccc23)CC2CCCO2)c2cccnc12 (centres unmarked)	5.00
Oc1ccc(CN(Cc2ccccc2)Cc2ccc(O)c3ncccc23)c2cccnc12	7.70
Cc1ccc(CN(Cc2ccc(O)c3ncccc23)Cc2ccc(O)c3ncccc23)cc1	8.52

// next item, pIC50 requested
## Task Which pIC50 is reported for this molecule? "Oc1ccc(CN(Cc2cccc(I)c2)Cc2ccc(O)c3ncccc23)c2cccnc12"
## Result 6.00

====

Tested on: KaKa
Test: Growth inhibition, MTT colorimetric assay, KaKa
Format: cell-based
Settings: 72 h; 3 days with drug; means of six values; unit inferred; read-out: IC50 KaKa
Reported pIC50 by item:
Note on units: pIC50 is unitless, being -log10 of a concentration expressed in mol/L.

Oc1ccc(CN(Cc2cccc(I)c2)Cc2ccc(O)c3ncccc23)c2cccnc12	5.11
Oc1ccc(CN(Cc2ccc(C(F)(F)F)cc2)Cc2ccc(O)c3ncccc23)c2cccnc12	5.80
Cc1ccc(CN(Cc2ccc(O)c3ncccc23)Cc2ccc(O)c3ncccc23)cc1	6.15
Oc1ccc(CN(Cc2ccccc2)Cc2ccc(O)c3ncccc23)c2cccnc12	5.61

Below: the item to evaluate.
## Task Which pIC50 value belongs to "Oc1ccc(CN(Cc2cccc(C(F)(F)F)c2)Cc2ccc(O)c3ncccc23)c2cccnc12" ?
## Result 5.19

====

Test system: U138 MG (human glioma)
Assay: Growth inhibition, MTT colorimetric assay, U138
Type: cell-based
Settings: Homo sapiens, U138-MG, 72 h; glioma; 3 days with drug; means of six values; unit inferred; read-out: IC50 U138
pIC50: −log10 of the molar value.
Label T when pIC50 is at or above 7; otherwise label F.

Oc1ccc(CN(Cc2cccc(I)c2)Cc2ccc(O)c3ncccc23)c2cccnc12	F

## Task Could you verify whether the entry "Oc1ccc(CN(Cc2ccc(C(F)(F)F)cc2)Cc2ccc(O)c3ncccc23)c2cccnc12" shows pIC50 of no less than 7?
## Result T

## Task Dear colleague, could you confirm whether O=C(O)C1CCC(CN(Cc2ccc(O)c3ncccc23)Cc2ccc(O)c3ncccc23)CC1 (stereo not drawn) has pIC50 at or above 7?
## Result F

## Task I'd appreciate it if you could say whether "Oc1ccc(CN(Cc2cccc(C(F)(F)F)c2)Cc2ccc(O)c3ncccc23)c2cccnc12" has pIC50 at least equal to 7.
## Result T
